Exercise: state measured Relative JC-1 accumulation for each of the molecules provided.
target: ATP-dependent translocase ABCB1 (Homo sapiens, UniProt P08183); experiment: Pgp transport inhibitory activity at 1 uM was measured by JC-1 accumulation assay method using JC-1 as substrate; format: functional
Sequence (P08183 whole entry): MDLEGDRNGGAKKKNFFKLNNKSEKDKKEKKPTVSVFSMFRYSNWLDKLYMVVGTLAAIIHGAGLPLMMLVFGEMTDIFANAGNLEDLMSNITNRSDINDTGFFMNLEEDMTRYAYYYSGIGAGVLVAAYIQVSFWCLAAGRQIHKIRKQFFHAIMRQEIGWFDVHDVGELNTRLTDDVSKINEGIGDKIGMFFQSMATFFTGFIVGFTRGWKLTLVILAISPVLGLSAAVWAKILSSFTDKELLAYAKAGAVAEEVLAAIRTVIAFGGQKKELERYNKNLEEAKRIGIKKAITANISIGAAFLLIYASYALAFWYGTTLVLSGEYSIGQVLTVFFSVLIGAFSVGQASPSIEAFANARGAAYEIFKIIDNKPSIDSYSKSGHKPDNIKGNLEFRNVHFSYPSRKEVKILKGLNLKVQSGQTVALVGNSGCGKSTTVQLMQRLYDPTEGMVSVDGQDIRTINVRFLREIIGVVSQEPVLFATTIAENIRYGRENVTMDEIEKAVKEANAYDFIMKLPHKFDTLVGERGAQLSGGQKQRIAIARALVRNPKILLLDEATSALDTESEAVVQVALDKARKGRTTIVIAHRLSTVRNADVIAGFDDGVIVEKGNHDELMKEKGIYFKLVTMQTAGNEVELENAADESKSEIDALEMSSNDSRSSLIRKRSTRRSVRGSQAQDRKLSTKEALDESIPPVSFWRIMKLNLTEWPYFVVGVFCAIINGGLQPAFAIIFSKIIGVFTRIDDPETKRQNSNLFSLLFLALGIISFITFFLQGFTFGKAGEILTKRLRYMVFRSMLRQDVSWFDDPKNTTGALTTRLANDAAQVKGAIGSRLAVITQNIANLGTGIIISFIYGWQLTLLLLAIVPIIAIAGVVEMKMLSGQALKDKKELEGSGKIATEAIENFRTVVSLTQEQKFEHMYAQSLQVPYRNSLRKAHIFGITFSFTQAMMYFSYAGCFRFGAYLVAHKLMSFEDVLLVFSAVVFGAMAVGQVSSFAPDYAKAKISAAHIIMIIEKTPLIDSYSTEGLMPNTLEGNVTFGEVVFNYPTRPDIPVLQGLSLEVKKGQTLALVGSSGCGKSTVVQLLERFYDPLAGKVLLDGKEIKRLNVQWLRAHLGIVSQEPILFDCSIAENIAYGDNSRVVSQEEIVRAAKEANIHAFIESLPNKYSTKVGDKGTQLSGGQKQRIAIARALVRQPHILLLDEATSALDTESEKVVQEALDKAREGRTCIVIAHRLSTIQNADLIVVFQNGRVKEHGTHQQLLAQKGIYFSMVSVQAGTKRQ
// no unit, no text: just the number

`CCOC(=O)COc1cc(-c2cc(=O)c3c(O)cc(OCC(=O)N4CCN(Cc5ccc(OC)c(OC)c5OC)CC4)cc3o2)ccc1OC` has a reported Relative JC-1 accumulation of 14

`COc1ccc(-c2cc(=O)c3c(O)cc(O)cc3o2)cc1OCC(=O)N1CCN(Cc2ccc(OC)c(OC)c2OC)CC1` has a reported Relative JC-1 accumulation of 0

`CCOC(=O)COc1cc(-c2cc(=O)c3c(O)cc(OCC(=O)N4CCN(Cc5cccc(OC)c5OC)CC4)cc3o2)ccc1OC` has a reported Relative JC-1 accumulation of 2

`CCOC(=O)COc1cc(OCC(=O)N2CCN(Cc3ccc(OC)c(OC)c3OC)CC2)c2c(=O)cc(-c3ccc(OC)c(OCC(=O)OCC)c3)oc2c1` has a reported Relative JC-1 accumulation of 1

`CCOC(=O)COc1cc(O)c2c(=O)cc(-c3ccc(OC)c(OCC(=O)N4CCN(Cc5cc(OC)c(OC)c(OC)c5)CC4)c3)oc2c1` has a reported Relative JC-1 accumulation of 5

`COc1ccc(-c2cc(=O)c3c(OCC(=O)N4CCN(Cc5ccc(OC)c(OC)c5OC)CC4)cc(O)cc3o2)cc1O` has a reported Relative JC-1 accumulation of 0

`COc1ccc(CCC(=O)c2c(O)cc(OCC(=O)N3CCN(Cc4ccc(OC)c(OC)c4OC)CC3)cc2O)cc1O` has a reported Relative JC-1 accumulation of 2

* * *

experiment: modulation factor: IC50 (uM); type: functional
Exercise: state measured Modulation factor for each of the compounds provided.
// no unit, no text: just the number

`COc1ccc(-c2cc(=O)c3c(OCC(=O)N4CCN(Cc5ccc(OC)c(OC)c5OC)CC4)cc(OCc4ccccc4)cc3o2)cc1OCc1ccccc1` has a reported Modulation factor of 45

`COc1ccc(/C=C/C(=O)c2c(O)cc(OCC(=O)N3CCN(Cc4ccc(OC)c(OC)c4OC)CC3)cc2O)cc1O` has a reported Modulation factor of 45

COc1ccc(C2CC(=O)c3c(OC(=O)C(C)(C)C)cc(OCC(=O)N4CCN(Cc5ccc(OC)c(OC)c5OC)CC4)cc3O2)cc1OC(=O)C(C)(C)C (stereo unspecified) has a reported Modulation factor of 45

`COc1ccc(-c2cc(=O)c3c(O)cc(O[C@@H]4O[C@H](CO[C@@H]5O[C@@H](C)[C@H](O)[C@@H](O)[C@H]5O)[C@@H](O)[C@H](O)[C@H]4O)cc3o2)cc1OCC(=O)N1CCN(Cc2ccc(OC)c(OC)c2OC)CC1` has a reported Modulation factor of 1

`COc1ccc(CCC(=O)c2c(O)cc(OCC(=O)N3CCN(Cc4ccc(OC)c(OC)c4OC)CC3)cc2O)cc1O` has a reported Modulation factor of 3

`COc1ccc(-c2cc(=O)c3c(O)cc(O[C@@H]4O[C@H](CO)[C@H](O)[C@@H](O)[C@H]4O)cc3o2)cc1OCC(=O)N1CCN(Cc2ccc(OC)c(OC)c2OC)CC1` has a reported Modulation factor of 1

* * *

molecular target: ATP-dependent translocase ABCB1 (Homo sapiens, UniProt P08183); assay: Pgp transport inhibitory activity at 5 uM was measured by JC-1 accumulation assay method using JC-1 as substrate; format: functional
Metric Name: Relative JC-1 accumulation
// no unit, no text: just the number

`COc1ccc(-c2cc(=O)c3c(O)cc(OCC(=O)N4CCN(Cc5ccc(OC)c(OC)c5OC)CC4)cc3o2)cc1O` has a reported Relative JC-1 accumulation of 50

`CCOC(=O)COc1cc(OCC(=O)N2CCN(Cc3ccc(OC)c(OC)c3OC)CC2)c2c(=O)cc(-c3ccc(OC)c(OCC(=O)OCC)c3)oc2c1` has a reported Relative JC-1 accumulation of 10

`CCOC(=O)COc1cc(-c2cc(=O)c3c(O)cc(OCC(=O)N4CCN(Cc5cccc(OC)c5OC)CC4)cc3o2)ccc1OC` has a reported Relative JC-1 accumulation of 22

`CCOC(=O)COc1cc(O)c2c(=O)cc(-c3ccc(OC)c(OCC(=O)N4CCN(Cc5ccc(OC)c(OC)c5)CC4)c3)oc2c1` has a reported Relative JC-1 accumulation of 26

COc1ccc(C2CC(=O)c3c(O)cc(OCC(=O)N4CCN(Cc5ccc(OC)c(OC)c5)CC4)cc3O2)cc1O (configuration not stated) has a reported Relative JC-1 accumulation of 9

`COc1ccc(/C=C/C(=O)c2c(O)cc(OCC(=O)N3CCN(Cc4ccc(OC)c(OC)c4OC)CC3)cc2O)cc1O` has a reported Relative JC-1 accumulation of 17

`CCOC(=O)COc1cc(O)c2c(=O)cc(-c3ccc(OC)c(OCC(=O)N4CCN(Cc5cc(OC)c(OC)c(OC)c5)CC4)c3)oc2c1` has a reported Relative JC-1 accumulation of 56
